Target: IRR (Homo sapiens)
Sequence (P14616 27-1297): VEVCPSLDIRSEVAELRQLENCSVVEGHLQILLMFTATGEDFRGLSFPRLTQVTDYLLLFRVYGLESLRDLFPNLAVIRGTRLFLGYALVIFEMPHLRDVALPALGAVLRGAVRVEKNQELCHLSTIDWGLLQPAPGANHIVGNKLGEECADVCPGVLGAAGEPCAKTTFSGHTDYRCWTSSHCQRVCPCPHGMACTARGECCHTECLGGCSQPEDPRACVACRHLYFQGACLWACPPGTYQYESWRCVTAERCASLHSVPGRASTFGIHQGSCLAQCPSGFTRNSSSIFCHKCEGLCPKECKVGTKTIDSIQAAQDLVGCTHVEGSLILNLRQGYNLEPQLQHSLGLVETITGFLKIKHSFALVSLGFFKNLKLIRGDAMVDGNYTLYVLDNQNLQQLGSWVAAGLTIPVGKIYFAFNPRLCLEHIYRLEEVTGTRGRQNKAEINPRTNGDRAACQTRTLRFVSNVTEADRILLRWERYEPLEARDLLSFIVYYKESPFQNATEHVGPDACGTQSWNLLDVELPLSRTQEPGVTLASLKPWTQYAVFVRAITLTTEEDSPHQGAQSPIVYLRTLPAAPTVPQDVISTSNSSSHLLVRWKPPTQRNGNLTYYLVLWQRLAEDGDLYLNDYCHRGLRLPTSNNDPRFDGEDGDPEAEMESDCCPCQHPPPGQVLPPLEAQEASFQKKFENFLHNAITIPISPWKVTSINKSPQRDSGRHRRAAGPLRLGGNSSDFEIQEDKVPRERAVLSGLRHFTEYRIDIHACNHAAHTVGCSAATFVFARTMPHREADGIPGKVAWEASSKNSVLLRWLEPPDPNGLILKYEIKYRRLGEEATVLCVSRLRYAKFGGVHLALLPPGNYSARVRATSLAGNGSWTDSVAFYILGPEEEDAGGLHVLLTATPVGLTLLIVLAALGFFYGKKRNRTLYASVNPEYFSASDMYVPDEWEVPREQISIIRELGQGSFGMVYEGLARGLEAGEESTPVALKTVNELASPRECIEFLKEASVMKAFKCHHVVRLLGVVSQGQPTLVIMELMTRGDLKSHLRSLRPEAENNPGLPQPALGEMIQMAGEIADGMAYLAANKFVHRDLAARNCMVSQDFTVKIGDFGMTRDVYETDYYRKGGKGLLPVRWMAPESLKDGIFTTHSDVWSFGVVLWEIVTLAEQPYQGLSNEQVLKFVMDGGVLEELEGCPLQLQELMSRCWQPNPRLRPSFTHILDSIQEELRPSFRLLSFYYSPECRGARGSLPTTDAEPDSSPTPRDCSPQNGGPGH
Experiment: Kinase profiling (radiometric filter-binding)
Format: biochemical
Conditions: 1 µM inhibitor, read-out: Residual activity, %
Square brackets hold non-standard residues; d marks the D form. Peptide text beside a SMILES is read from it. * marks the point of attachment. X3 = O=C(CCCCCNCc1nc2c(sc3cc(Br)cnc32)c(=O)[nH]1)*
Documented remaining activity at 1 µM across a set of molecules

MOLECULE: N=C(N)NCCC[C@@H](NC(=O)CCCCCNCc1nc2c(sc3cc(Br)cnc32)c(=O)[nH]1)C(=O)N[C@H](CCCNC(=N)N)C(=O)N[C@H](CCCNC(=N)N)C(=O)N[C@H](CCCNC(=N)N)C(=O)N[C@H](CCCNC(=N)N)C(=O)N[C@H](CCCNC(=N)N)C(=O)N[C@H](CCCCN)C(N)=O [ARC-3126, BPTP-Ahx-(D-Arg)6-D-Lys-NH2] (X3-[dR][dR][dR][dR][dR][dR][dK]-NH2)
remaining activity at 1 µM [%]: 75
//
MOLECULE: N=C(N)NCCC[C@@H](NC(=O)CNC(=O)[C@@H](CCCNC(=N)N)NC(=O)[C@@H](CCCNC(=N)N)NC(=O)Cn1cc(CNCc2nc3c(sc4ccc(Br)cc43)c(=O)[nH]2)nn1)C(=O)N[C@H](CCCCN)C(N)=O
remaining activity at 1 µM [%]: 110
//
MOLECULE: N=C(N)NCCC[C@@H](NC(=O)CNC(=O)[C@@H](CCCNC(=N)N)NC(=O)[C@@H](CCCNC(=N)N)NC(=O)CCCCCCCNCc1nc2c(sc3ccc(Br)cc32)c(=O)[nH]1)C(=O)N[C@H](CCCCN)C(N)=O
remaining activity at 1 µM [%]: 99
//
MOLECULE: N=C(N)NCCC[C@@H](NC(=O)CCCCCNC(=O)Cn1cnc2c(I)c(I)c(I)c(I)c21)C(=O)N[C@H](CCCNC(=N)N)C(=O)N[C@H](CCCNC(=N)N)C(=O)N[C@H](CCCNC(=N)N)C(=O)N[C@H](CCCNC(=N)N)C(=O)N[C@H](CCCNC(=N)N)C(=O)N[C@H](CCCCN)C(N)=O
remaining activity at 1 µM [%]: 20
//
MOLECULE: N=C(N)NCCC[C@@H](NC(=O)CNC(=O)[C@@H](CCCNC(=N)N)NC(=O)[C@@H](CCCNC(=N)N)NC(=O)CCCCCCCNCc1nc2c(sc3cc(Br)cnc32)c(=O)[nH]1)C(=O)N[C@H](CCCCN)C(N)=O
remaining activity at 1 µM [%]: 99

----------
Target: MARK3 (Homo sapiens, UniProt P27448)
Sequence (P27448 whole entry): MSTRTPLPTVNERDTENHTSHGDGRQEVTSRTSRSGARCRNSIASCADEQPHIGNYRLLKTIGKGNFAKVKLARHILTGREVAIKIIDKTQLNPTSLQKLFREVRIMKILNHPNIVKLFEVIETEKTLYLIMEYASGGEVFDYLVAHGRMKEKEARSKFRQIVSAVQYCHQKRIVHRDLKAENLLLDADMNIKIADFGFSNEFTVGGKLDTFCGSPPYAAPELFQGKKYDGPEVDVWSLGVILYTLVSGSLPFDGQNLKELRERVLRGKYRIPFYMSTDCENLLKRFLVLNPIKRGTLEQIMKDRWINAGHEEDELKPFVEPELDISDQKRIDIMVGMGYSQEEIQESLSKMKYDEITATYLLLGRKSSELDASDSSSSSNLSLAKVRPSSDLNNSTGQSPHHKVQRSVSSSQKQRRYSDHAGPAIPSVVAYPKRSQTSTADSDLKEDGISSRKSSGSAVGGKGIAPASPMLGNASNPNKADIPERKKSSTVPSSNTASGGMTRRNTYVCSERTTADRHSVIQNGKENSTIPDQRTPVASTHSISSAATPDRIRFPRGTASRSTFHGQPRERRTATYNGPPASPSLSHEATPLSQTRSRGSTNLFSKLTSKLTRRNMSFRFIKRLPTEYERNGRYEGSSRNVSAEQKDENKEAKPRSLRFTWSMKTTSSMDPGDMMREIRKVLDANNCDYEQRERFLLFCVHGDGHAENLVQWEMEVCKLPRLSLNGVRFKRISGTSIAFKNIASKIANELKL
Experiment: Kinase profiling (radiometric filter-binding)
Type: biochemical
Conditions: MARK3, 1 µM inhibitor; read-out: Residual activity, %
Square brackets hold non-standard residues; d marks the D form. Peptide text beside a SMILES is read from it. * marks the point of attachment. X3 = O=C(CCCCCNCc1nc2c(sc3cc(Br)cnc32)c(=O)[nH]1)*

COMPOUND: N=C(N)NCCC[C@@H](NC(=O)CNC(=O)[C@@H](CCCNC(=N)N)NC(=O)[C@@H](CCCNC(=N)N)NC(=O)CCCCCCCNCc1nc2c(sc3cc(Br)cnc32)c(=O)[nH]1)C(=O)N[C@H](CCCCN)C(N)=O
UNIT STRING: %
remaining activity at 1 µM: 100
//
COMPOUND: N=C(N)NCCC[C@@H](NC(=O)CNC(=O)[C@@H](CCCNC(=N)N)NC(=O)[C@@H](CCCNC(=N)N)NC(=O)Cn1cc(CNCc2nc3c(sc4ccc(Br)cc43)c(=O)[nH]2)nn1)C(=O)N[C@H](CCCCN)C(N)=O
UNIT STRING: %
remaining activity at 1 µM: 100
//
COMPOUND: N=C(N)NCCC[C@@H](NC(=O)CCCCCNC(=O)Cn1cnc2c(I)c(I)c(I)c(I)c21)C(=O)N[C@H](CCCNC(=N)N)C(=O)N[C@H](CCCNC(=N)N)C(=O)N[C@H](CCCNC(=N)N)C(=O)N[C@H](CCCNC(=N)N)C(=O)N[C@H](CCCNC(=N)N)C(=O)N[C@H](CCCCN)C(N)=O
UNIT STRING: %
remaining activity at 1 µM: 72
//
COMPOUND: N=C(N)NCCC[C@@H](NC(=O)CNC(=O)[C@@H](CCCNC(=N)N)NC(=O)[C@@H](CCCNC(=N)N)NC(=O)CCCCCCCNCc1nc2c(sc3ccc(Br)cc32)c(=O)[nH]1)C(=O)N[C@H](CCCCN)C(N)=O
UNIT STRING: %
remaining activity at 1 µM: 102
//
COMPOUND: N=C(N)NCCC[C@@H](NC(=O)CCCCCNCc1nc2c(sc3cc(Br)cnc32)c(=O)[nH]1)C(=O)N[C@H](CCCNC(=N)N)C(=O)N[C@H](CCCNC(=N)N)C(=O)N[C@H](CCCNC(=N)N)C(=O)N[C@H](CCCNC(=N)N)C(=O)N[C@H](CCCNC(=N)N)C(=O)N[C@H](CCCCN)C(N)=O [ARC-3126, BPTP-Ahx-(D-Arg)6-D-Lys-NH2] (X3-[dR][dR][dR][dR][dR][dR][dK]-NH2)
UNIT STRING: %
remaining activity at 1 µM: 112
